Reference source: PubChem BioAssay

MEASUREMENT NOTES: MM1S cell viability effects, profiling panel, calcein-AM fluorescence, 48 h, basal (AID 1165);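 note: viability of MM1S multiple myeloma cells under basal unstimulated conditions; test concentration not given here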
EXPERIMENTAL CONTEXT: higher = more signal
The threshold is inclusive: z-score of exactly 0.2 counts as Y; values below receive N.

Is z-score at least 0.2? Consider Cc1cc2c(nc1C)CCCCN2CC(C)ON=C[C@@H](C)[C@H](OCc1ccccc1)C(C)C (stereo partly drawn)
N

Is z-score at least 0.2? Consider O=C1[C@H]2[C@H]3[C@H](O)[C@H](O)CC(=NO[C@@H]4O[C@H](CO)[C@@H](O)[C@H](O)[C@H]4O)[C@H]3CC[C@H]2C(=O)N1c1cccc(Oc2ccccc2)c1
Y

Is z-score at least 0.2? Consider C=CC[C@@H]1C=C[C@H](ON=C(C)CCC(=O)OC[C@H]2O[C@H](c3ccccc3)C=C[C@@H]2Oc2ccc(OC)cc2)[C@@H](CO)O1
N

Is z-score at least 0.2? Consider COC(=O)CC=C[C@@H](C)[C@@H](C=NO[C@@H]1O[C@H](COC(C)=O)[C@@H](OC(C)=O)[C@H](OC(C)=O)[C@H]1OC(C)=O)NS(=O)(=O)c1ccc(C)cc1
Y

Is z-score at least 0.2? Consider CCOC(=O)[C@H](Cc1ccccc1)NC(=O)CCC1CC(OC(=O)NCc2cccc3ccccc23)CC2(CCCC(COC(=O)NCc3ccccc3)O2)O1 (stereo partly drawn)
Y

Is z-score at least 0.2? Consider CCOC(=O)[C@H](Cc1ccccc1)NC(=O)CCC1CC(OC(=O)NCCc2ccc(F)cc2)CC2(CCCC(COC(=O)NCCOC)O2)O1 (stereo partly drawn)
N

Is z-score at least 0.2? Consider COc1ccc(COC(=O)NN=C2C[C@@H](O)[C@@H](O)[C@@H]3[C@@H]4C(=O)N(C5CCCCC5)C(=O)[C@@H]4CC[C@H]23)cc1
N

Is z-score at least 0.2? Consider CO[C@H]1COC(=O)CC=C[C@@H](C)[C@H](OC)COC(=O)[C@@H]2CCCN2C(=O)CC=C[C@@H]1C
Y

Is z-score at least 0.2? Consider CCOC(=O)[C@H](CC(C)C)NC(=O)CCC1CC(OC(=O)NCCc2ccc(F)cc2)CC2(CCCC(COC(=O)NCCc3ccccc3OC)O2)O1 (stereo partly drawn)
N

Is z-score at least 0.2? Consider O=C1C=C[C@@H](O)[C@@H]2[C@@H]3C(=O)N(c4ccc(F)cc4F)C(=O)[C@@H]3CC[C@@H]12
N

Is z-score at least 0.2? Consider COC(=O)CC=C[C@@H](C)[C@@H](C=NO[C@@H]1O[C@H](COC(C)=O)[C@@H](OC(C)=O)[C@H](OC(C)=O)[C@H]1OC(C)=O)OC
N

Is z-score at least 0.2? Consider CCN1C(=O)[C@H]2[C@H]3[C@H](O)[C@H](O)CC(=NO[C@@H](C)c4cn([C@H](CO)Cc5ccccc5)nn4)[C@@H]3CC[C@H]2C1=O
N

Is z-score at least 0.2? Consider COc1ccc(O[C@H]2C=C[C@@H](c3ccccc3)O[C@@H]2COC(=O)CCC(C)=NOC(C)CN2CCCc3nc(C)c(C)cc32)cc1 (stereo partly drawn)
N

----------
MEASUREMENT NOTES: yeast growth modulation, basal conditions, primary screen, YJM789 clinical isolate, OD600, 24 h (AID 1089);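 note: growth of clinical yeast isolate S. cerevisiae YJM 789 seeded 1000 cells per well; test concentration not given here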
EXPERIMENTAL CONTEXT: S. cerevisiae YJM789 growth, higher = more signal, called active from +8 up or from −8 down
The source made the active and inactive calls.
VALUE KIND: z-score

# input compound: CON=C[C@@H](NS(=O)(=O)c1ccc(C)cc1)[C@H](C)C=CCC(=O)OC ; wanted: its z-score
0.903 (inactive)

# input compound: O=c1n(Cc2cc3c(cc2Cl)OCO3)c(=O)n2n1CC[C@@H]1C(=NOCc3ccccc3)[C@H]3O[C@H]3[C@@H](O)[C@@H]12 ; wanted: its z-score
-1.97 (inactive)

# input compound: CC(C)(C)N1C(=O)[C@H]2[C@H]3[C@H](O)[C@H](O)CC(=NO[C@@H]4O[C@H](CO)[C@@H](O)[C@H](O)[C@H]4O)[C@H]3CC[C@H]2C1=O ; wanted: its z-score
0.768 (inactive)

# input compound: COc1ccc(O[C@H]2C=C[C@@H](c3ccccc3)O[C@@H]2CON=CC[C@@H]2C=C[C@H](OC(C)=O)[C@@H](COC(C)=O)O2)cc1 ; wanted: its z-score
0.507 (inactive)

# input compound: COc1ccc(COC(=O)NN=C2C[C@@H](O)[C@@H](O)[C@@H]3[C@@H]4C(=O)N(C5CCCCC5)C(=O)[C@@H]4CC[C@H]23)cc1 ; wanted: its z-score
0.494 (inactive)

# input compound: C[C@H]1COC(=O)[C@@H]2CCCN2C(=O)[C@@H](C)COC(=O)[C@H](Cc2ccccc2)NC1=O ; wanted: its z-score
-0.801 (inactive)

# input compound: CCOC(=O)[C@H](CC(C)C)NC(=O)CCC1CC(OC(=O)NCCc2ccc(F)cc2)CC2(CCCC(COC(=O)NCC3CCCCC3)O2)O1 (some centres not stated) ; wanted: its z-score
-0.808 (inactive)

----------
Test system: Sam68 (KHDRBS1)
MEASUREMENT NOTES: Sam68 small-molecule binders, primary screen, biochemical, small-molecule microarray, 635 nm fluorescence (AID 1125);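 note: score merges 667 nm channel intensity with signal to noise over triplicate slides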
EXPERIMENTAL CONTEXT: small-molecule microarray binding, higher = more signal
VALUE KIND: composite z-score
Just the number, please, no unit after it.

# input compound: COc1ccc(O[C@H]2C=C[C@@H](c3ccccc3)O[C@@H]2CON=C2[C@H]3CCn4c(=O)n(-c5ccccc5)c(=O)n4[C@H]3[C@H](O)[C@@H]3O[C@H]23)cc1 ; wanted: its composite z-score
1.18

# input compound: CO[C@H]1COC(=O)CCC[C@@H](C)[C@H](OC)COC(=O)[C@@H](C)NC(=O)CC=C[C@@H]1C ; wanted: its composite z-score
0.186

# input compound: CC(CCN1CCCCc2nc(C)c(C)cc21)=NOC[C@@H](O)COCc1ccco1 ; wanted: its composite z-score
0.428

# input compound: CCOC(=O)C1=NO[C@@]2(C=C(Br)C3(OCCCO3)[C@H]3O[C@H]32)C1 ; wanted: its composite z-score
-0.268

# input compound: CCC(=O)[C@@]1(O)C(=O)N2C(=C3C(=O)OCC[C@@H]31)N(Cc1ccccc1)C(C)=C(C(=O)OC)[C@H]2c1ccccc1 ; wanted: its composite z-score
0.431

# input compound: COC(=O)CC=C[C@@H](C)[C@@H](C=NO[C@@H]1O[C@H](COC(C)=O)[C@@H](OC(C)=O)[C@H](OC(C)=O)[C@H]1OC(C)=O)OC ; wanted: its composite z-score
0.702

# input compound: C#CCCCON=C1C[C@@H](O)[C@@H](O)[C@@H]2[C@@H]3C(=O)N(c4cccc(Oc5ccccc5)c4)C(=O)[C@@H]3CC[C@H]12 ; wanted: its composite z-score
-0.582

# input compound: CO[C@@H]1COC(=O)CC=C[C@@H](C)[C@@H]2C=C[C@H](O)[C@@H](COC(=O)CC=C[C@H]1C)O2 ; wanted: its composite z-score
0.141

# input compound: CO[C@@H]1COC(=O)[C@H](CCSC)NC(=O)CC=C[C@@H](C)COC(=O)CCC[C@H]1C ; wanted: its composite z-score
0.973

# input compound: C#CCCCON=C1C[C@@H](O)[C@@H](O)[C@@H]2[C@@H]3C(=O)N(Cc4ccccc4)C(=O)[C@@H]3CC[C@@H]12 ; wanted: its composite z-score
-0.492

# input compound: C#CCCCON=C1C[C@@H](O)[C@@H](O)[C@@H]2[C@@H]3C(=O)N(C(C)(C)C)C(=O)[C@@H]3CC[C@@H]12 ; wanted: its composite z-score
-0.161

# input compound: CC(C)C[C@H](NC(=O)CCC1CC(OC(=O)NCc2cccc3ccccc23)CC2(CCCC(COC(=O)NCc3ccccc3)O2)O1)C(=O)NCC(c1ccccc1)c1ccccc1 (stereo not given in full) ; wanted: its composite z-score
1.31

# input compound: O=C1C[C@@H](O)[C@@H](O)[C@@H]2[C@@H]3C(=O)N(C[C@@H]4CCCO4)C(=O)[C@@H]3CC[C@@H]12 ; wanted: its composite z-score
0.666

# input compound: CC(C)(C)N1C(=O)[C@H]2[C@H]3[C@H](O)[C@H](O)CC(=O)[C@@H]3CC[C@H]2C1=O ; wanted: its composite z-score
0.0236

# input compound: CC[C@@H](c1ccccc1)n1c(=O)n2n(c1=O)[C@H]1[C@H](O)[C@@H]3O[C@@H]3C(=NOC[C@@H](O)COCc3ccco3)[C@H]1CC2 ; wanted: its composite z-score
-0.758
